B1: glmS ribozyme (parent)
chain: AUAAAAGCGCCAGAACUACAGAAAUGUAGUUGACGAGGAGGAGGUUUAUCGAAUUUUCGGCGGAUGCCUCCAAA

variants of: B1; test: self-cleavage kobs at 40 uM GlcN6P; higher = faster cleavage; RNA array; conditions: with glucosamine-6-phosphate
Fewer inactive variants are shown than the library holds.
Answer each item with its documented self-cleavage kobs at 40 uM GlcN6P.

# query: self-cleavage kobs at 40 uM GlcN6P of entry A14U U30C G44A U46G
< 1e-05 s⁻¹

Input G7U U31C G59U
< 1e-05 s⁻¹

Input A12U C70U
0.00232 s⁻¹

Input U46G U69C
0.000136 s⁻¹

Input A6C G7C C11G U55G
< 1e-05 s⁻¹

Input A39G U65G
0.000177 s⁻¹

Input A42G A52U C70A
< 1e-05 s⁻¹

Input G38A U45C
< 1e-05 s⁻¹

Input G35A U56C C58U
< 1e-05 s⁻¹

Input G7U G37C C61A C68G C70U
0.000181 s⁻¹

Input C11A A39C G62C A64U C67G
< 1e-05 s⁻¹

Input A6U G7U A36G U49C C58G
< 1e-05 s⁻¹

Input U46G C67G C68G
2.82e-05 s⁻¹

Input U56A C70U C71U
5.46e-05 s⁻¹

Input A48U U49A
< 1e-05 s⁻¹

Input G43C G59C
< 1e-05 s⁻¹
